Assay: NCI Yeast Anticancer Drug Screen. Data for the sgs1 mgt1 strain (AID 161);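 further: 0% = growth of cultures given vehicle only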
Conditions: S. cerevisiae sgs1 mgt1 strain, at 50.0 µM, stronger effect = higher value
The panel holds about 79,000 compounds, 15% with a hit somewhere; the sample as a whole holds those more often. Activity calls are given as the source filed them. No stated cut-off is given here; in the data, active means growth inhibition above about 70%; inactive means the rest.
Quantity measured: growth inhibition

>>> experimental_result("O=C(O)CCC(NC(=O)c1ccc(Nc2nc3ccc(C(F)(F)F)cc3nc2-c2ccccc2)cc1)C(=O)O (centres undefined)")
"4.75% (inactive)"
>>> experimental_result("CCC(=O)c1cccc(-c2ccccc2)c1C")
"-2.5% (inactive)"
>>> experimental_result("Cc1cccc(C)c1N1C(=O)C2c3[nH]c4ccccc4c3C3CCC(C(C)(C)C)CC3C2C1=O (centres undefined)")
"28.2% (inactive)"
>>> experimental_result("O=[N+]([O-])c1ccc(N/N=C(/c2ccc(Cl)cc2)c2ccccc2Cl)c([N+](=O)[O-])c1")
"-6.25% (inactive)"
>>> experimental_result("Cc1nc2ccc(Cl)cc2c(=O)[nH]1")
"-8.65% (inactive)"
>>> experimental_result("O=C(O)CCC(=O)CCc1ccccc1C(=O)O")
"4.3% (inactive)"
>>> experimental_result("O=C1c2cc([N+](=O)[O-])ccc2-c2c(F)cc(F)cc21")
"9.35% (inactive)"
>>> experimental_result("Cc1ccc(C(C)C)cc1[N+](=O)[O-]")
"-17.7% (inactive)"
>>> experimental_result("CNCc1cccs1")
"-27.8% (inactive)"
>>> experimental_result("Cc1nn(C(=O)c2cccnc2)c(-c2ccccc2)c1N=Nc1ccc(S(=O)(=O)Nc2ncccn2)cc1")
"31.4% (inactive)"
>>> experimental_result("CCCCOC(=O)c1ccc(OC(=O)Nc2cccc(Cl)c2)cc1")
"6.15% (inactive)"
>>> experimental_result("CN(C)C=Nc1ccn(C2CC(F)C(CO)O2)c(=O)n1 (centres undefined)")
"-22.4% (inactive)"
>>> experimental_result("CC(C)C(NCc1c(O)ccc2c(-c3ccccc3)cc(=O)oc12)C(=O)O (centres undefined)")
"-19% (inactive)"
>>> experimental_result("CC(C)CC1OCC(C)(C)C(C(C)C)O1 (centres undefined)")
"-17.4% (inactive)"
>>> experimental_result("O=NN(Cc1ccc(Cl)cc1)NC1=NCCN1")
"3.75% (inactive)"
>>> experimental_result("Cc1ccc(S(=O)(=O)N2c3ccccc3[C@H]3CCC=C[C@H]32)cc1")
"-19.4% (inactive)"
>>> experimental_result("COc1ccc([N+](=O)[O-])c2ncncc12")
"0.8% (inactive)"
>>> experimental_result("O=C(O)c1cc(C2CC2)nc2ccccc12")
"0.55% (inactive)"
>>> experimental_result("CC/C=C(\\CCC)C(C#N)(CC)C(=O)OCC (centres undefined)")
"-21.2% (inactive)"
>>> experimental_result("CCCCCOCC(O)CNCCNCC(O)COCCCCC (centres undefined)")
"14.3% (inactive)"
>>> experimental_result("N#C/C=C(\\N)C(C#N)C#N")
"-3.15% (inactive)"
>>> experimental_result("CCOC(=O)/C(=C\\c1cccc(F)c1)C(C)=O")
"7.05% (inactive)"
>>> experimental_result("O=[N+]([O-])c1ccccc1Sc1ccc2c3c(cccc13)CN(CCCO)C2")
"47.6% (inactive)"
>>> experimental_result("COC(=O)C1(Cc2ccc3c(c2)CCC3)Cc2ccccc2C1=O (centres undefined)")
"25.1% (inactive)"
>>> experimental_result("COc1ccc(C2=C(C#N)C(=C(C#N)C#N)NC(N)=C2C#N)cc1")
"-21.8% (inactive)"
>>> experimental_result("CC(=O)C1C(=O)C(=O)N(c2ccc([N+](=O)[O-])cc2Cl)C1=O (centres undefined)")
"2.95% (inactive)"
>>> experimental_result("CC(=O)C1CCCCCCC1=O (centres undefined)")
"4.9% (inactive)"
>>> experimental_result("COc1cc2c(oc(=O)c3c4occc4cc(OC)c23)c2cccc(OCc3ccccc3)c12")
"-11.8% (inactive)"
>>> experimental_result("CCOC(=O)c1c(-c2ccc(Cl)cc2)c(C#N)c(=S)n(C2OC(COC(C)=O)C(OC(C)=O)C(OC(C)=O)C2OC(C)=O)c1-c1ccccc1 (centres undefined)")
"-6.8% (inactive)"
>>> experimental_result("C/C=C(\\CC)C(C#N)(CC)C(=O)OCC (centres undefined)")
"-7.5% (inactive)"
>>> experimental_result("CCOc1nc(N)nc(C)c1N=Nc1ccc(C)cc1")
"-4.5% (inactive)"
>>> experimental_result("CSCCC(NC=O)C(=O)O (centres undefined)")
"7.9% (inactive)"
>>> experimental_result("Cc1ccnc(N=C/C=C2/C=CC=CN2O)c1")
"1.75% (inactive)"
>>> experimental_result("CCCC(=O)OCc1ccccc1")
"-6.9% (inactive)"
>>> experimental_result("CN(C)c1nc2ccccn2c1C(=O)c1ccccc1")
"-12.8% (inactive)"
>>> experimental_result("CC(=O)CC(=O)N1CCN(C(=O)CC(C)=O)C(C)C1 (centres undefined)")
"6.05% (inactive)"
>>> experimental_result("COc1cc(NS(=O)(=O)c2ccc(N)cc2)c2ncccc2c1")
"8.8% (inactive)"
>>> experimental_result("O=[N+]([O-])C1C2CCC(C2)C1c1ccccc1 (centres undefined)")
"-0.55% (inactive)"
>>> experimental_result("O=S(=O)(Nc1ccc(C(F)(F)F)cc1)c1ccc(F)cc1")
"26% (inactive)"
>>> experimental_result("[N-]=[N+]=Nc1ccnc2cc(C(F)(F)F)ccc12")
"-2.25% (inactive)"
>>> experimental_result("CN(CC(=O)O)c1ccc([N+](=O)[O-])cc1[N+](=O)[O-]")
"10.4% (inactive)"
>>> experimental_result("CCOC(=O)c1nc(SC)sc1NC(=O)c1ccccc1[N+](=O)[O-]")
"-8.75% (inactive)"
>>> experimental_result("Nc1c(-c2nc3ccccc3[nH]2)sc(=S)n1-c1ccc(Cl)cc1")
"2.75% (inactive)"
>>> experimental_result("O=C(CCl)NCCCCCNC(=O)CCl")
"-6.85% (inactive)"
>>> experimental_result("NC(=O)c1cccc(NC=O)c1")
"22.1% (inactive)"
>>> experimental_result("C=C1CCCC2OC(OC)CCC12 (centres undefined)")
"-6.5% (inactive)"
>>> experimental_result("Cc1nc2ccccc2nc1CC(O)(c1ccccc1)c1cccc2ccccc12 (centres undefined)")
"37.4% (inactive)"
>>> experimental_result("COc1ccc(C)cc1NC(=O)c1c(Br)c(Br)c(Br)c(Br)c1C(=O)O")
"10.4% (inactive)"
>>> experimental_result("N#CCCCCCCO")
"11.4% (inactive)"

====

Test: NCI Yeast Anticancer Drug Screen. Data for the sgs1 mgt1 strain (AID 161);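 further: 0% = growth of cultures given vehicle only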
Details: S. cerevisiae sgs1 mgt1 strain, at 50.0 µM, stronger effect = higher value
This is part of a sample that, as a whole, favours compounds with a hit. Of some 79,000 tested, about 15% had one in any assay. Where a SMILES comes first, the peptide text is derived from it. The star is where a group is joined. Boc = CC(C)(C)OC(=O)*; OBn = c1ccc(CO*)cc1; Bn = c1ccc(C*)cc1
Quantity measured: growth inhibition (%)

>>> experimental_result("CCN(CCOC(=O)Nc1cccc(C(C)=O)c1)c1ccccc1")
97.5
>>> experimental_result("c1ccc(-c2cc3cc4c(cc3[nH]2)Oc2ccccc2O4)cc1")
18.4
>>> experimental_result("[N-]=[N+]=NC1=NNC2(C(=O)N1)c1ccccc1-c1ccccc12")
-22.9
>>> experimental_result("Clc1ccc2nc[nH]c2c1")
4.5
>>> experimental_result("CC(C)(C)c1ccc(Sc2cccc3c2C(=O)c2c(Cl)cccc2C3=O)cc1")
-27.1
>>> experimental_result("CC(=O)[CH-]C(=O)c1ccccc1.CC(=O)[CH-]C(=O)c1ccccc1.CCCCCCCCCCCCCCCCCC(=O)[O-].CCCCCCCCCCCCCCCCCC(=O)[O-].[Ti+4]")
-6.55
>>> experimental_result("COc1ccc2nc3cc(Cl)ccc3c(Nc3ccc(C(O)CCN(C)C)cc3)c2c1 (stereo unspecified)")
25.4
>>> experimental_result("CC1O[C@@]2(CC[C@H]3[C@@H]4CCC5=CC(=O)CC[C@]5(C)[C@H]4CC[C@@]32C)C1=O (stereo partly specified)")
11.4
>>> experimental_result("COc1ccc(-c2cc(-c3ccccc3)n[nH]2)cc1")
43.8
>>> experimental_result("CCOC(=O)C(NC(=O)c1ccccc1)(c1ccc(S(=O)(=O)Nc2onc(C)c2C)cc1)C(F)(F)F (stereo unspecified)")
-18.9
>>> experimental_result("O=C(CO)C(O)C(O)C(O)CO (stereo unspecified)")
-7.45
>>> experimental_result("O=C1CC(c2ccc(Cl)cc2)NC(c2ccc(Cl)cc2)C1 (stereo unspecified)")
8.55
>>> experimental_result("CC(=O)OCCC(=O)Nc1cc([N+](=O)[O-])ccc1OCc1ccccc1")
-6.45
>>> experimental_result("C[s+]1c2ccccc2c2ccccc21")
-32.9
>>> experimental_result("O=C(Nc1cccc(O)c1)Nc1ccc(Cl)cc1[N+](=O)[O-]")
99.2
>>> experimental_result("CC(=O)Nc1ccc(N=NN(C)c2ccccc2)cc1")
47.1
>>> experimental_result("O=C(O)C1=NN(c2ccc(S(=O)(=O)O)cc2)C(=O)C1N=Nc1ccc(S(=O)(=O)O)cc1 (stereo unspecified)")
17.1
>>> experimental_result("CC1C(NNC(N)=O)Oc2cc3c(cc2C1c1ccccc1O)OCO3 (stereo unspecified)")
11.8
>>> experimental_result("Cc1cccc(C)c1NC(=O)Nc1cccc(C(F)(F)F)c1")
-14.7
>>> experimental_result("CC(C)CC(NC(=O)C(CCC(=O)OCc1ccccc1)NC(=O)OC(C)(C)C)C(=O)NC(COCc1ccccc1)C(=O)NC(Cc1ccccc1)C(=O)O (stereo unspecified) (Boc-E(OBn)LS(Bn)F-OH; configuration not given here)")
-8.05
>>> experimental_result("Cc1nc2c(c(-c3ccccc3)n1)Cc1ccccc1O2")
7.55
